# experimental_target: T1, human His6-GITR (human, UniProt Q9Y5U5 26-162)
# T1 construct: His6-tagged recombinant protein; also called hGITR-His; human GITR-His
# T1 sequence: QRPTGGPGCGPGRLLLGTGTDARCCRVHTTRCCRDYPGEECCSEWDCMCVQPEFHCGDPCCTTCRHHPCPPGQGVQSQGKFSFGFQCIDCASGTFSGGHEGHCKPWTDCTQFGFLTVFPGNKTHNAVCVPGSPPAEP
# method_description: ELISA, scFv periplasmic extract on coated His6-GITR
readout_type: hGITR-His/BKG (fold over background)
Write down the numeric answer in fold over background and omit the unit.

{"binder": "GITR-Mab-22 scFv (scFv, V domains shown, scFv in periplasmic extract, V5 tag) VH: QVQLVQSGAEVKKPGASVKVSCKASGGRFSTYALSWVRQAPGQGLEWMGIINPTDGSTTYAQKFQGRVTMTRDTSTSTVYMELSSLRSEDTAVYYCARDVYSSSWYSDYWGQGTLVTVSS VL: DIQMTQSPSSLSASVGDRVTITCRASQSISNWLAWYQQKPGKAPKLLIYAASTLQSGVPSRFSGSGSGTDFTLTISSLQPEDFATYYCQQSYSVPFTFGPGTKVDIK", "hGITR-His/BKG (fold over background)": 25.7}

Could you now look at the following binder, please?
# return recorded hGITR-His/BKG for input GITR-Mab-45 scFv (scFv, V domains shown, scFv in periplasmic extract, V5 tag) VH: QVQLVQSGAEVKKPGASVKVSCKASGYTFTSYGISWVRQAPGQGLEWMGWMNPNSGNTGYAQKFQGRVTMTRDTSTSTVYMELSSLRSEDTAVYYCAREVYGDLDYWGQGTLVTVSS VL: DIQMTQSPSSLSASVGDRVTITCRASQGIDNWLAWYQQKPGKAPKLLIYGASTLQSGVPSRFSGSGSGTDFTLTISSLQPEDFATYYCQQSYTARFTFGPGTKVDIK
1.4
